# protocol_details: Brain-to-plasma ratio after intraperitoneal administration in male CD-1 mice (LC-MS/MS of plasma and brain homogenate)
# Type: in vivo
# run_parameters: male, CD-1, mouse, plasma, ip, 50 mg/kg, 3.0 hr after IP dosing at 50 mg/kg, individual mice; read-out: Plasma Conc
property: concentration at 3 h (ng/mL)

| smi | reported_value |
| --- | --- |
| CC(c1ccc(N(CCO)CCO)cc1)c1ccc(N(CCO)CCO)cc1 | 2.67 |

* * *

# protocol_details: Brain-to-plasma ratio after intraperitoneal administration in male CD-1 mice (LC-MS/MS of plasma and brain homogenate)
# Format: in vivo
# run_parameters: male, CD-1, mouse, brain/plasma, ip, 50 mg/kg, 3.0 hr after IP dosing at 50 mg/kg, individual mice; read-out: B:P Ratio

| smi | Kp at 3 h |
| --- | --- |
| COCCN(CCOC)c1ccc(C(C)c2ccc(N(CCOC)CCOC)cc2)cc1 | 0.65 |
| CC(c1ccc(N(CCO)CCO)cc1)c1ccc(N(CCO)CCO)cc1 | 1.14 |
